experiment: amyloid nucleation score (Sup35N fusion, yeast selection) (log enrichment); library NNK3; higher = more nucleation; inactive = no reads after selection;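 further: zero at mode of non-aggregating sequences after 7 days selection at 30°C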
ASSAY_METRIC: amyloid nucleation score
Keep it simple and answer with nothing but the number.

Please review the following examples before continuing.
substance=SGIQVRGQTSIVLLNF measured_value=2.41
substance=CANAYWDVCCCYVFLMGLGG measured_value=-0.268
substance=FRIIQVVRYDMMGTRLDMYQ measured_value=0.938

Next:
// query amyloid nucleation score value for entry `RMILFFVARSSKMGIGTFGF`
0.868

---

assay: amyloid nucleation score (Sup35N fusion, yeast selection) (log enrichment); library NNK3; higher = more nucleation; inactive = no reads after selection
ASSAY_METRIC: amyloid nucleation score

Please review the following examples before continuing.
substance=YSGSNITTHNVFNETGDWSG measured_value=inactive
substance=CSLRPNSERTSVIYNALHVN measured_value=inactive
substance=HVIFFYILAFYNHSMGRTAV measured_value=inactive
substance=NIRKPDMYLITVCWESSQAL measured_value=inactive
substance=RCECVPPNQTRCYQRLASS measured_value=inactive

Next:
// query amyloid nucleation score value for entry `LRSRKWSSTVSCEYSANGLR`
inactive

---

experiment: amyloid nucleation score (Sup35N fusion, yeast selection) (log enrichment); library NNK2; higher = more nucleation; inactive = no reads after selection
If the reported amyloid nucleation score equals or exceeds 0.1, assign yes (1). If not, assign no (0).

Reference set, count: 3
substance=KLGRCRRKFMLYGCNLVQSR label_class="no (0)"
substance=EDTMFHNFQWSKAYLCYYWF label_class="no (0)"
substance=FTKKFYWGYPWCYMVF label_class="no (0)"

Could you please find out whether `KGFEIFSSFTLYV` has amyloid nucleation score that meets 0.1 or exceeds it?
no (0)

Could you please find out whether `NYFCIRS` has amyloid nucleation score that meets 0.1 or exceeds it?
yes (1)

Could you please find out whether `NVLLNQNIMVLPGPLYFSIT` has amyloid nucleation score that meets 0.1 or exceeds it?
yes (1)

Could you please find out whether `FIYQFHVVFLVCQGHNNLYT` has amyloid nucleation score that meets 0.1 or exceeds it?
yes (1)

Could you please find out whether `YLLALRCLFLLYRVYWFSIE` has amyloid nucleation score that meets 0.1 or exceeds it?
no (0)

Could you please find out whether `MSKDTVMPWERIKEVLHCLG` has amyloid nucleation score that meets 0.1 or exceeds it?
yes (1)

Could you please find out whether `PCFRWSRGRKSCECCHVGYM` has amyloid nucleation score that meets 0.1 or exceeds it?
yes (1)

Could you please find out whether `FINCSHQCHSIGIRVLLNCR` has amyloid nucleation score that meets 0.1 or exceeds it?
yes (1)

Could you please find out whether `LFTVLKTVWANNNTYDSKQK` has amyloid nucleation score that meets 0.1 or exceeds it?
no (0)

Could you please find out whether `VEINNNE` has amyloid nucleation score that meets 0.1 or exceeds it?
no (0)

Could you please find out whether `LILTFLEWNLFFYSFNIFTY` has amyloid nucleation score that meets 0.1 or exceeds it?
yes (1)

Could you please find out whether `VRQRNNWFTMVIVCVISVMA` has amyloid nucleation score that meets 0.1 or exceeds it?
yes (1)

Could you please find out whether `TIFIGVRVPS` has amyloid nucleation score that meets 0.1 or exceeds it?
no (0)

Could you please find out whether `FYKGWMVLALNDNSVVSINV` has amyloid nucleation score that meets 0.1 or exceeds it?
yes (1)

Could you please find out whether `TTFIRLVIITPWV` has amyloid nucleation score that meets 0.1 or exceeds it?
yes (1)

Could you please find out whether `FKFYSRSAYSHHRFSIYCDR` has amyloid nucleation score that meets 0.1 or exceeds it?
no (0)

Could you please find out whether `FKILCFSHGNNRM` has amyloid nucleation score that meets 0.1 or exceeds it?
yes (1)

---

Catalogue of substances with associated amyloid nucleation score
test: amyloid nucleation score (Sup35N fusion, yeast selection) (log enrichment); library NNK2; higher = more nucleation; inactive = no reads after selection
Keep it simple and answer with nothing but the number.

Please review the following examples before continuing.
substance=VSDRLTMFKSVRSVWMCWGQ measured_value=-0.146
substance=PHSRNRFLMFA measured_value=-0.488
substance=FISHIYLNESQQKSSALNTL measured_value=-1.32

// query amyloid nucleation score value for entry `ALVAWVVSYYLALLCSPRQS`
-0.1

// query amyloid nucleation score value for entry `DDSTFKSRFVLGIPAICLGS`
-1.37

// query amyloid nucleation score value for entry `IKRSMCICY`
0.089

// query amyloid nucleation score value for entry `FTRYLTFNFRLETYYRGSHG`
1.44

// query amyloid nucleation score value for entry `STTQEF`
0.086

// query amyloid nucleation score value for entry `VVPCWSVNKDSRSDRSD`
-0.1

// query amyloid nucleation score value for entry `RFVYMDIRDMAGWTPLYVYP`
-1.23

// query amyloid nucleation score value for entry `LVVKGDLFAIYVCPCLCRGS`
9.4

// query amyloid nucleation score value for entry `WTTMRLFLDFMYTLDRVGST`
-0.291

// query amyloid nucleation score value for entry `GRTCVRRGQAE`
0.909

// query amyloid nucleation score value for entry `IYVPIGATQ`
-1.26

// query amyloid nucleation score value for entry `VFAMDYDVCDNSTCHKGV`
-0.057

---

assay: amyloid nucleation score (Sup35N fusion, yeast selection) (log enrichment); library NNK1; higher = more nucleation; inactive = no reads after selection
If the reported amyloid nucleation score equals or exceeds 0.5, assign label 1. If not, assign label 0.

Reference set, count: 5
primary_sequence=SNAIVTFIVGVAAPGTYYS label_class="label 1"
primary_sequence=HIKVHKFVGENWETFSRADM label_class="label 0"
primary_sequence=VFLVTIWRSIMVLWNTVW label_class="label 0"
primary_sequence=LTKISQLKRCDHKMRKSVSN label_class="label 1"
primary_sequence=NRLATLVDVTVMQSNTFELL label_class="label 1"

Could you please find out whether `ICCISKILLFCISM` has amyloid nucleation score that meets 0.5 or exceeds it?
label 1

Could you please find out whether `ENARHRCDQ` has amyloid nucleation score that meets 0.5 or exceeds it?
label 1

Could you please find out whether `SPPMSKLVMATRVLKCMDPS` has amyloid nucleation score that meets 0.5 or exceeds it?
label 0

Could you please find out whether `YFASCRTM` has amyloid nucleation score that meets 0.5 or exceeds it?
label 0

Could you please find out whether `IFVYRRRMGSIV` has amyloid nucleation score that meets 0.5 or exceeds it?
label 1

Could you please find out whether `VWLRNTKEMCFV` has amyloid nucleation score that meets 0.5 or exceeds it?
label 1

Could you please find out whether `VAFVLLTQVGGWRLGIWRRK` has amyloid nucleation score that meets 0.5 or exceeds it?
label 0

Could you please find out whether `LKLYLYTLECTFDELDYGD` has amyloid nucleation score that meets 0.5 or exceeds it?
label 0

Could you please find out whether `KLILWGRLSANNFYYSFGFL` has amyloid nucleation score that meets 0.5 or exceeds it?
label 0

Could you please find out whether `PSTPQSHKMMGYRFRDRTGW` has amyloid nucleation score that meets 0.5 or exceeds it?
label 0

Could you please find out whether `HTCGIDGLNKRMT` has amyloid nucleation score that meets 0.5 or exceeds it?
label 0

Could you please find out whether `MFCFKGHQSRDLRTFDYIW` has amyloid nucleation score that meets 0.5 or exceeds it?
label 0

Could you please find out whether `GKPVDRLS` has amyloid nucleation score that meets 0.5 or exceeds it?
label 0

---

assay: amyloid nucleation score (Sup35N fusion, yeast selection) (log enrichment); library NNK3; higher = more nucleation; inactive = no reads after selection
ASSAY_METRIC: amyloid nucleation score

Please review the following examples before continuing.
substance=TETASNSTRYSFL measured_value=inactive
substance=YDRGLISWTCVRVSS measured_value=inactive
substance=KVVVKEIQILVGSAGSKRMS measured_value=0.638
substance=LKDNPNSLWC measured_value=-0.224
substance=VIGRTASDGVRCCRVGMMRR measured_value=inactive
substance=FFSTQAFLDLAHTRFVNPLG measured_value=inactive

// query amyloid nucleation score value for entry `SWAVRMAGEYFRNSDMMWCA`
inactive

// query amyloid nucleation score value for entry `NIMVDHS`
-0.476

// query amyloid nucleation score value for entry `AMEIRNVQELSIGPGNWMET`
inactive

// query amyloid nucleation score value for entry `NGFCSASICREDCEMWNMQS`
inactive

---

assay: amyloid nucleation score (Sup35N fusion, yeast selection) (log enrichment); library NNK2; higher = more nucleation; inactive = no reads after selection
Catalogue of substances with associated amyloid nucleation score
Keep it simple and answer with nothing but the number.

substance=YVSWCCGRFISYPVC assay_metric="amyloid nucleation score" measured_value=0.321
substance=MSFVDEYCGGEVTISEPSMS assay_metric="amyloid nucleation score" measured_value=-0.545
substance=FNLTFNHF assay_metric="amyloid nucleation score" measured_value=6.04
substance=SRDCVRDLSVMCSLWKWFPV assay_metric="amyloid nucleation score" measured_value=-0.394
substance=LSRVSE assay_metric="amyloid nucleation score" measured_value=-0.405

// query amyloid nucleation score value for entry `TSCHRLWLLFMCIAGG`
-0.199

// query amyloid nucleation score value for entry `IFYCFGKLDA`
5.18

// query amyloid nucleation score value for entry `LAWWFY`
-0.325

// query amyloid nucleation score value for entry `LRIRYFSFDIIVLEGYIRSA`
-0.205

// query amyloid nucleation score value for entry `MFDLQVRTWFWAF`
3.03

// query amyloid nucleation score value for entry `KSNLCLNVHGSLGICPTHDL`
0.178

// query amyloid nucleation score value for entry `GAIIDITRFGFLLYF`
-0.847

// query amyloid nucleation score value for entry `LNNRISNVAAGSSLRIYLMD`
2.79

// query amyloid nucleation score value for entry `KDYPLAGSLVTKL`
0.317

// query amyloid nucleation score value for entry `TSFLPELRGLYGRAIVARNY`
-1.39

// query amyloid nucleation score value for entry `VNSMAMLCLRICIGTHQMCG`
5.03
